system: UO-31 renal; assay: NCI-60 one-dose screen, 48 h (100 = growth as untreated, 0 = no growth, -100 = all killed); conditions: 10 µM unless noted
Compounds without any hit were thinned out: in the full panel of roughly 83,000, 20% have a hit.
Here, each record is paired with measured growth data.
Please give a number only; it is taken to be in %.

Tell us which growth value is on record for N#Cc1c(-c2ccccc2)nc2c(c(-c3ccccc3)nn2-c2ccccc2)c1-c1ccc(N2CCCCC2)cc1
84.9

* * *

tested on: MDA-MB-435 melanoma; experiment: NCI-60 one-dose screen, 48 h (100 = growth as untreated, 0 = no growth, -100 = all killed); conditions: 10 µM unless noted
The panel holds about 83,000 compounds, 20% with a hit somewhere; the sample as a whole holds those more often. Active and inactive are the calls of the source. Rule for the calls: active = growth percent below 10; inactive = the rest.
measurement.name: growth

Tell us which growth value is on record for O=[N+]([O-])c1ccccc1Sc1ccccc1[N+](=O)[O-]
103% (inactive)

Tell us which growth value is on record for O=C(CCCCCCCC(=O)N1CCCCC1)N1CCCCC1
105% (inactive)

Tell us which growth value is on record for CC1(C)N=C(N)N=C(N)N1c1ccc(S(=O)(=O)Nc2nccs2)cc1
102% (inactive)

Tell us which growth value is on record for CN(C)C1CN(C(=O)c2cc(-c3ccc4ncnc(N5CCc6cc(F)c(Cl)cc65)c4c3)cnc2N)C1
9.39% (active)

Tell us which growth value is on record for CCN1CCN(CCNc2nccc(-c3c(-c4ccc(F)c(O)c4)nc4occn34)n2)S1(=O)=O
10.1% (inactive)

Tell us which growth value is on record for Cc1nc2ccccc2c(/C=C/c2ccc(F)cc2)c1C(=O)/C=C/c1ccccc1
-9.7% (active)

Tell us which growth value is on record for Cc1cc(C)c2c(c1)N(C)c1ncnc(-n3c(C)nc4cc(C)ccc43)c1CC2C (stereo not given)
2.51% (active)

Tell us which growth value is on record for COc1cc2ncnc(Nc3ccc(F)c(Cl)c3)c2cc1OCC(=O)N1CCOCC1
102% (inactive)

Tell us which growth value is on record for CCOC(=O)c1cnn(CC(C)O)c1NC(=O)NCc1ccccc1C(F)(F)F (stereo not given)
104% (inactive)

Tell us which growth value is on record for CN(C)c1ccc(CNCCO)cc1
102% (inactive)

Tell us which growth value is on record for Cc1nn(C)c2ncnc(N/N=C/c3cccc(O)c3O)c12
24.4% (inactive)

Tell us which growth value is on record for Cc1cc(=O)n(C(=S)Nc2ccc(Cl)cc2)c2cc(O)ccc12
105% (inactive)

Tell us which growth value is on record for CCCCCc1ccc(S(=O)(=O)Nc2cc(-c3csc(NC(C)=O)n3)ccc2N2CCN(C)CC2)cc1
-45.4% (active)

Tell us which growth value is on record for CC(C)n1c2ccc(Br)cc2c2c3c(c4c5ccccc5ccc4c21)C(=O)NC3=O
92.4% (inactive)
